Molecular target: T1, DcR3 (UniProt O95407 30-300, limits assumed)
T1 construct: the construct is not described; also called decoy receptor DcR3; TNFRSF6B
T1 sequence (looked up): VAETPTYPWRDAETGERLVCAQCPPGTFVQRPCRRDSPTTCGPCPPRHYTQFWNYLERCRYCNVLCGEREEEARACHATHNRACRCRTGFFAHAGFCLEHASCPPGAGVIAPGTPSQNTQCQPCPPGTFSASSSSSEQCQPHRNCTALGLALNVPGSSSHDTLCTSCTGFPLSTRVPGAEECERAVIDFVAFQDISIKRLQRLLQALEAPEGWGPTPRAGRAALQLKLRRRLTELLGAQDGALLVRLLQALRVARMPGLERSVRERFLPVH
Experiment: ELISA, DcR3
Catalogue of pEC50 values
Note on pEC50: it is the negative log10 of concentration, concentration in mol/L.

Solved entries (count: 5):
TL1W95 (His-TEV-TL1A Q167A) (ligand, also called TL1W95 (Q167A)) HHHHHHENLYFQGLKGQEFAPSHQQVYAPLRADGDKPRAHLTVVRQTPTQHFKNQFPALHWEHELGLAFTKNRMNYTNKFLLIPESGDYFIYSQVTFRGMTSECSEIRAAGRPNKPDSITVVITKVTDSYPEPTQLLMGTKSVCEVGSNWFQPIYLGAMFSLQEGDKLMVNVSDISLVDYTKEDKTFFGAFLL : 6.75
TL1W2 (His-TEV-hTL1A 72-251) (ligand, Non-covalent trimer; entry holds the His-TEV tag; also called His-TL1A; His-TL1A (TL1W2)) HHHHHHENLYFQGLKGQEFAPSHQQVYAPLRADGDKPRAHLTVVRQTPTQHFKNQFPALHWEHELGLAFTKNRMNYTNKFLLIPESGDYFIYSQVTFRGMTSECSEIRQAGRPNKPDSITVVITKVTDSYPEPTQLLMGTKSVCEVGSNWFQPIYLGAMFSLQEGDKLMVNVSDISLVDYTKEDKTFFGAFLL : 8.34
TL1W92 (His-TEV-TL1A M158Y) (ligand, also called TL1W92 (M158Y)) HHHHHHENLYFQGLKGQEFAPSHQQVYAPLRADGDKPRAHLTVVRQTPTQHFKNQFPALHWEHELGLAFTKNRMNYTNKFLLIPESGDYFIYSQVTFRGYTSECSEIRQAGRPNKPDSITVVITKVTDSYPEPTQLLMGTKSVCEVGSNWFQPIYLGAMFSLQEGDKLMVNVSDISLVDYTKEDKTFFGAFLL : 7.16
TL1W80 (His-TEV-TL1A K111A) (ligand, also called TL1W80 (K111A)) HHHHHHENLYFQGLKGQEFAPSHQQVYAPLRADGDKPRAHLTVVRQTPTQHFANQFPALHWEHELGLAFTKNRMNYTNKFLLIPESGDYFIYSQVTFRGMTSECSEIRQAGRPNKPDSITVVITKVTDSYPEPTQLLMGTKSVCEVGSNWFQPIYLGAMFSLQEGDKLMVNVSDISLVDYTKEDKTFFGAFLL : 7.05
TL1W109 (His-TEV-TL1A S187L) (ligand, also called TL1W109 (S187L)) HHHHHHENLYFQGLKGQEFAPSHQQVYAPLRADGDKPRAHLTVVRQTPTQHFKNQFPALHWEHELGLAFTKNRMNYTNKFLLIPESGDYFIYSQVTFRGMTSECSEIRQAGRPNKPDSITVVITKVTDLYPEPTQLLMGTKSVCEVGSNWFQPIYLGAMFSLQEGDKLMVNVSDISLVDYTKEDKTFFGAFLL : 7.07

pEC50 reading for TL1W38 (His-TEV-TL1A L123K) (ligand, also called TL1W38 (L123K)) HHHHHHENLYFQGLKGQEFAPSHQQVYAPLRADGDKPRAHLTVVRQTPTQHFKNQFPALHWEHEKGLAFTKNRMNYTNKFLLIPESGDYFIYSQVTFRGMTSECSEIRQAGRPNKPDSITVVITKVTDSYPEPTQLLMGTKSVCEVGSNWFQPIYLGAMFSLQEGDKLMVNVSDISLVDYTKEDKTFFGAFLL : 7.61

pEC50 reading for TL1W122 (His-TEV-TL1A N207F) (ligand, also called TL1W122 (N207F)) HHHHHHENLYFQGLKGQEFAPSHQQVYAPLRADGDKPRAHLTVVRQTPTQHFKNQFPALHWEHELGLAFTKNRMNYTNKFLLIPESGDYFIYSQVTFRGMTSECSEIRQAGRPNKPDSITVVITKVTDSYPEPTQLLMGTKSVCEVGSFWFQPIYLGAMFSLQEGDKLMVNVSDISLVDYTKEDKTFFGAFLL : 7.23

pEC50 reading for TL1W45 (His-TEV-TL1A E190F) (ligand, also called TL1W45 (E190F)) HHHHHHENLYFQGLKGQEFAPSHQQVYAPLRADGDKPRAHLTVVRQTPTQHFKNQFPALHWEHELGLAFTKNRMNYTNKFLLIPESGDYFIYSQVTFRGMTSECSEIRQAGRPNKPDSITVVITKVTDSYPFPTQLLMGTKSVCEVGSNWFQPIYLGAMFSLQEGDKLMVNVSDISLVDYTKEDKTFFGAFLL : 7.67
